Test system: NCI-H322M lung
Test: NCI-60 one-dose screen, 48 h (100 = growth as untreated, 0 = no growth, -100 = all killed)
Conditions: 10 µM unless noted
This is part of a sample that, as a whole, favours compounds with a hit. Of some 83,000 tested, about 20% had one in any assay.
Record form. Attribute: growth. Fill in for each entry.
Numbers only, in %.

Example molecules with recorded growth:
- Molecule: "Cc1c(NC(=O)CSc2nc3sc4c(c3c(=O)n2-c2ccc(Cl)cc2)CCCC4)c(=O)n(-c2ccccc2)n1C"
  Endpoint name: "growth"
  Number: 94.9
- Molecule: "Cc1cccc(/C=C/c2nn3c(-c4ccco4)nnc3s2)c1"
  Endpoint name: "growth"
  Number: 94.4
- Molecule: "C#Cc1nc(C2=C(C)C(OC(C)=O)/C(=N/OC(C)=O)C2)cs1 (configuration not stated)"
  Endpoint name: "growth"
  Number: 116
- Molecule: "Cc1cc2nc3c4cc(Cl)ccc4n(CC(=S)NCCN(C)C)c3nc2cc1C"
  Endpoint name: "growth"
  Number: 40.1
- Molecule: "NS(=O)(=O)c1cccc(Nc2nc(SCC(=O)c3ccc([N+](=O)[O-])cc3)nc3ccccc23)c1"
  Endpoint name: "growth"
  Number: 82.7

Respectfully, I request growth for each entry included below.
1. Oc1c(Cl)cc(Cl)c2ccc(CN3CCCCC3)nc12
2. COc1cccc(N2CCN(c3ncnc4c3[nH]c3ccc(F)cc34)C[C@@H]2C)c1
3. OC1CCc2c(-c3ccc4ncnc(N5CCc6cc(F)c(Cl)cc65)c4c3)cncc21 (configuration not stated)
4. CCOC(=O)c1c(Nc2ccccc2)nn2c(N)c(C#N)c(-c3ccc(Cl)cc3)nc12
5. COc1ccc(/C=N/NC(=O)c2[nH]c3ccc(Br)cc3c2-c2ccccc2)s1
6. N#Cc1c(-c2ccc(Cl)cc2)nc(SCc2ccc([N+](=O)[O-])cc2)nc1N1CCNCC1
7. COc1cc2cc(Oc3ccc(NC(=O)c4cccc(C(F)(F)F)c4)cc3)c(C)nc2cc1OCCN1CCCCC1
8. Cc1cc(C(=O)Nc2sc3c(c2C(N)=O)CCC(=O)C3)ccc1OCCN1CCCCC1

stdout:
37.9
-39.9
15
77.4
50.8
40.5
69.2
111
